assay_target: CCK2 receptor (Homo sapiens, UniProt P32239)
Construct: Membranes were prepared from the HEKZFP cells after induction; endogenous in cells; membrane preparation
measurement_description: CCK2 receptor radioligand binding assay ([125I]-BH-CCK-8S, HEKZFP cell membranes)
details: competition with [125I]-BH-CCK-8S, membranes of induced HEKZFP cells, 60 min at 21±3° C., Cheng-Prusoff
readout_label: log10 Ki (log10 of the value in nM)

1. CN(Cc1ccc(F)cc1)C(=O)c1ccc(I)cc1NS(=O)(=O)c1cccc2nccnc12 :: 1.20
2. C[C@@H](NC(=O)c1ccc(C#N)cc1NS(=O)(=O)c1cccc2nccnc12)c1ccc(F)cc1F :: 2.50
3. C[C@H](c1ccccc1)N(C)C(=O)c1ccc(Br)cc1NS(=O)(=O)c1cccc2nccnc12 :: 1.10
4. O=C(NC(CF)c1ccc(F)cc1F)c1ccc(Br)cc1NS(=O)(=O)c1cccc2nccnc12 (centres unmarked) :: 1.50
5. C[C@@H]1COCCN1C(=O)c1ccc(Br)cc1NS(=O)(=O)c1cccc2nccnc12 :: 1.90

====

assay_target: CCK2 receptor (Homo sapiens, UniProt P32239)
Construct: Membranes were prepared from the HEKZFP cells after induction; endogenous in cells; host or cells: HEKZFP cells (T-REx-293 with tet-inducible ZFP-VP16 specific for the CCK2R gene), doxycycline-induced; membrane preparation
measurement_description: CCK2 receptor radioligand binding assay ([125I]-BH-CCK-8S, HEKZFP cell membranes)
details: competition with [125I]-BH-CCK-8S, membranes of induced HEKZFP cells, 60 min at 21±3° C., Cheng-Prusoff
Readings of pKi for the listed compounds
readout_label: pKi

1. O=C(c1ccc(I)cc1NS(=O)(=O)c1cccc2nccnc12)N1CCOCC1 [Example 6] :: 7.5
2. O=C(c1ccc(Br)cc1NS(=O)(=O)c1cccc2nccnc12)N1CCCCC1 [Example 32] :: 7.2
3. O=C(c1ccc(Br)cc1NS(=O)(=O)c1cccc2nccnc12)N1CCOCC1 [Example 11] :: 7.2
4. O=C(c1ccc(Cl)cc1NS(=O)(=O)c1cccc2nccnc12)N1CCOCC1 [Example 14] :: 6.5
5. O=C(NCc1ccc(F)cc1F)c1ccc(I)cc1NS(=O)(=O)c1cccc2nccnc12 [Example 57] :: 7.4

====

assay_target: CCK2 receptor (Homo sapiens, UniProt P32239)
Construct: Membranes were prepared from the HEKZFP cells after induction; endogenous in cells; membrane preparation
Sequence (P32239 1-447): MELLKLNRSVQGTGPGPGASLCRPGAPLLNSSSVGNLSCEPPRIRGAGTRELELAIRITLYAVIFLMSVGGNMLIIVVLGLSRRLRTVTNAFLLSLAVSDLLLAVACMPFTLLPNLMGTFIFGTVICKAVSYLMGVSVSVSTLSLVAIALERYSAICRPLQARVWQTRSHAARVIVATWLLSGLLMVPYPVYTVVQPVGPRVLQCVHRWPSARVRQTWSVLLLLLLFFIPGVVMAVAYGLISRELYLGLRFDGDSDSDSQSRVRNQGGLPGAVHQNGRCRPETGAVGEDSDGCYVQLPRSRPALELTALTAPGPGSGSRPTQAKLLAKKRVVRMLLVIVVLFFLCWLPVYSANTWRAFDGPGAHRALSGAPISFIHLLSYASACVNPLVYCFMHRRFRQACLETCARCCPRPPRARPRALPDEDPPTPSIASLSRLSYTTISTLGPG
measurement_description: CCK2 receptor radioligand binding assay ([125I]-BH-CCK-8S, HEKZFP cell membranes)
details: competition with [125I]-BH-CCK-8S, membranes of induced HEKZFP cells, 60 min at 21±3° C., Cheng-Prusoff
pKi: −log10 of the molar value.
readout_label: pKi

1. CN(Cc1ccc(Cl)cc1)C(=O)c1ccc(I)cc1NS(=O)(=O)c1cccc2nccnc12 :: 7.70
2. O=C(c1ccc(I)cc1NS(=O)(=O)c1cccc2nccnc12)N1CCC(O)CC1 :: 6.50
3. O=C(c1ccc(Cl)cc1NS(=O)(=O)c1cccc2nccnc12)N1CCOc2ccccc2C1 :: 6.80
4. O=C(c1ccc(Br)cc1NS(=O)(=O)c1cccc2nccnc12)N1CCCCCC1 :: 6.90

====

assay_target: CCK2 receptor (Homo sapiens)
Construct: Membranes were prepared from the HEKZFP cells after induction; endogenous in cells; membrane preparation
measurement_description: CCK2 receptor radioligand binding assay ([125I]-BH-CCK-8S, HEKZFP cell membranes)
details: competition with [125I]-BH-CCK-8S, membranes of induced HEKZFP cells, 60 min at 21±3° C., Cheng-Prusoff
Threshold 40 nM: Ki strictly smaller gives yes (1), otherwise no (0).

1. C[C@@H]1COCCN1C(=O)c1ccc(I)cc1NS(=O)(=O)c1cccc2nccnc12 [Example 19] :: no (0)
2. O=C(NC(CF)c1ccc(F)cc1F)c1ccc(I)cc1NS(=O)(=O)c1cccc2nccnc12 (centres unmarked) [Example 75] :: no (0)
3. C[C@H]1COCCN1C(=O)c1ccc(I)cc1NS(=O)(=O)c1cccc2nccnc12 [Example 23] :: no (0)
4. O=C(N[C@H](CF)c1ccc(F)cc1F)c1ccc(Br)cc1NS(=O)(=O)c1cccc2nccnc12 [Example 76] :: yes (1)
5. C[C@@H](NC(=O)c1ccc(I)cc1NS(=O)(=O)c1cccc2nccnc12)c1ccc(F)cc1 [Example 63] :: yes (1)
6. C[C@@H](NC(=O)c1ccc(I)cc1NS(=O)(=O)c1cccc2nccnc12)c1ccc(Cl)cc1Cl [Example 64] :: yes (1)
7. O=C(c1ccc(Br)cc1NS(=O)(=O)c1cccc2nccnc12)N1CCCc2ccccc2C1 [Example 10] :: no (0)
8. CC(NC(=O)c1ccc(Br)cc1NS(=O)(=O)c1cccc2nccnc12)c1ccc(Cl)cc1 (centres unmarked) [Example 50] :: no (0)
9. C[C@@H](NC(=O)c1ccc(F)cc1NS(=O)(=O)c1cccc2nccnc12)c1ccc(Cl)cc1Cl [Example 37] :: no (0)
10. O=C(c1ccc(I)cc1NS(=O)(=O)c1cccc2nccnc12)N1CCCCC1 [Example 4] :: yes (1)
11. O=C(c1ccc(I)cc1NS(=O)(=O)c1cccc2nccnc12)N1CCOc2cc(F)cc(F)c2C1 [Example 94] :: no (0)
12. C[C@@H](NC(=O)c1cc(Cl)c(Cl)cc1NS(=O)(=O)c1cccc2nccnc12)c1ccc(F)cc1F [Example 5] :: yes (1)
13. C[C@@H]1COC[C@H](C)N1C(=O)c1ccc(I)cc1NS(=O)(=O)c1cccc2nccnc12 [Example 25] :: no (0)
14. O=C(c1cc(Cl)c(Cl)cc1NS(=O)(=O)c1cccc2nccnc12)N1CCOCC1 [Example 20] :: no (0)
15. C[C@H]1COCCN1C(=O)c1ccc(Br)cc1NS(=O)(=O)c1cccc2nccnc12 [Example 28] :: no (0)
16. O=C(c1ccc(Br)cc1NS(=O)(=O)c1cccc2nccnc12)N1CCOc2cc(F)ccc2C1 [Example 39] :: no (0)
17. C[C@@H](NC(=O)c1ccc(Cl)cc1NS(=O)(=O)c1cccc2nccnc12)c1ccc(F)cc1F [Example 3] :: yes (1)
18. C[C@@H](NC(=O)c1ccc(Cl)cc1NS(=O)(=O)c1cccc2nccnc12)c1ccc(F)cc1 [Example 7] :: yes (1)
19. C[C@@H](NC(=O)c1ccc(Br)cc1NS(=O)(=O)c1cccc2nccnc12)c1ccc(F)cc1F [Example 2] :: yes (1)
20. O=C(N[C@H](CF)c1ccc(F)cc1)c1ccc(I)cc1NS(=O)(=O)c1cccc2nccnc12 [Example 73] :: no (0)
21. C[C@H](NC(=O)c1ccc(I)cc1NS(=O)(=O)c1cccc2nccnc12)c1ccc(Cl)cc1Cl [Example 66] :: no (0)
22. CN(Cc1ccccc1)C(=O)c1ccc(I)cc1NS(=O)(=O)c1cccc2nccnc12 [Example 42] :: yes (1)
23. O=C(N[C@H](CF)c1ccc(F)cc1)c1ccc(Br)cc1NS(=O)(=O)c1cccc2nccnc12 [Example 71] :: no (0)
24. C[C@@H](NC(=O)c1ccc(Br)cc1NS(=O)(=O)c1cccc2nccnc12)c1ccc(Cl)cc1Cl [Example 1] :: yes (1)
25. O=C(c1ccc(Cl)cc1NS(=O)(=O)c1cccc2nccnc12)N1CCOc2cc(F)cc(F)c2C1 [Example 40] :: no (0)
26. CC(NC(=O)c1ccc(Br)cc1NS(=O)(=O)c1cccc2nccnc12)c1ccc(F)cc1 (centres unmarked) [Example 53] :: yes (1)
27. O=C(c1ccc(Cl)cc1NS(=O)(=O)c1cccc2nccnc12)N1CCCCC1 [Example 79] :: no (0)
